- ASSAY PROTOCOL: MM1S cell viability effects, profiling panel, calcein-AM fluorescence, 48 h, basal (AID 1165);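 also: viability of MM1S multiple myeloma cells under basal unstimulated conditions; test concentration not given here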
- RECORDED CONDITIONS: higher = more signal
// values below are reported z-score
Lab note: jot down the number only; don't add units.

// solved cases for z-score follow
COMPOUND	REPORTED METRIC	EXPERIMENTAL VALUE
CCOC(=O)C[C@H]1[C@H](OC(=O)c2ccccc2-c2ccccc2)[C@@H](NC(=O)c2ccc3ccccc3n2)c2cc(OCCCO)ccc2N1C(=O)c1ccccc1	z-score	-0.295
CCCCCCCCCCC(O)C1C=CC2C(=O)N(C)C(=O)C2N1Nc1cc(OC)c(OC)c(OC)c1 (configuration not stated)	z-score	-3.8
O=C1OCC=C[C@H]2OC34C=CCN(c5ccc6ccccc6c5)C(=O)[C@H]3N(CCCCCO)C(=O)[C@@H]4[C@@H]12 (some centres not stated)	z-score	0.589
O=C1C2C=CC(C(O)c3ccc(I)cc3)N(Nc3ccccc3)C2C(=O)N1c1ccccc1 (configuration not stated)	z-score	0.196

Value of z-score reported for the compound COCCOC(=O)N1C(=O)[C@@]2(c3cc(C#CC4=CCCCC4)ccc31)[C@H](C(=O)N1CCCCCCC1)[C@H]1C(=O)O[C@H](c3ccccc3)[C@H](c3ccccc3)N1[C@@H]2c1ccc(OCCO)cc1 is -0.774

Measured z-score, CC=CC(O)C1C=CC2C(=O)NC(=O)C2N1Nc1ccccn1 (configuration not stated) : -0.228

Recorded result, CCCCCN1CC=CC23O[C@@H]4/C=C\CCC(C)OC(=O)C4[C@H]2C(=O)N(CCCCCCO)[C@@H]3C1=O (some centres not stated) , z-score: 1.6
